Data origin, for the record: patent US20110268740A1

biological target: scFv-E040-msFcγ2c
Experimental Endpoint: EC50 (µM)
Please respond with the number in µM and leave the unit unwritten.

Q: Entry under review: SLLTEVETPTRNEWECRCSDSSD (modifications not checked) [M2e-VN] . Reported EC50?
Result: 43.2
